- Tested on: J774 macrophages
- MEASUREMENT_NOTES: Alamar Blue macrophage J774 viability assay
- Format: cell-based
- PARTICULARS: Mus musculus, 72 hours exposure, J774 macrophage cell line, read-out: IC50 against J774 macrophages (viability)
READOUT_LABEL: IC50

Exam item: // IC50 lookup, key: OCCCCCC(O)c1ccc(-c2ccccc2)cc1 (centres unmarked)
Marked response: < 20 µM

More entries:
Exam item: # input compound: O=C(CCCCCO)c1ccc(-c2ccccc2)cc1 [ABD-68, 6-Hydroxy-1-(4-biphenyl)hexan-1-one] ; wanted: its IC50
Marked response: < 20 µM
